assay: Partition coefficient (logP); format: physicochemical; settings: octanol/water
Kindly state logP for each of the entries shown.
Give bare numbers.

Solved entries (count: 2):
-- ask Identify measured logP associated with `CC1=CCN(NC(=O)c2ccccc2)CC1`
-- reply 1.2

-- ask Tell us which logP value is on record for CC(O)C1=CCN(NC(=O)c2ccccc2)CC1 (configuration not stated)
-- reply 0.0414

Go through the list and state logP for each entry.
1. CC1=CCCN(NC(=O)c2ccccc2)C1
2. O=C(NN1CC=C(CO)CC1)c1ccccc1
3. CC1=C(C)CN(NC(=O)c2ccccc2)CC1
4. O=C(O)CCC1=CCN(NC(=O)c2ccccc2)CC1
5. O=C(NN1CCC=CC1=O)c1ccccc1
6. C=C1C=CCN(NC(=O)c2ccccc2)C1

-- reply
1: 1.37; 2: 0.643; 3: 1.35; 4: 1; 5: 1.17; 6: 1.37

====

assay: Partition coefficient (logP); type: physicochemical; details: octanol/water
Measured quantity: logP

Answered cases to consult:
-- ask Output measured logP for this item: `COC(=O)CCC1=CCCN(NC(=O)c2ccccc2)C1`
-- reply 0.74

-- ask State its logP for this molecule: `O=C(NN1CC=C(CCCO)CC1)c1ccccc1`
-- reply 1.22

-- ask Look up and state reported logP for `CC(=O)OCCCC1=CCN(NC(=O)c2ccccc2)CC1`
-- reply 1.52

-- ask Supply reported logP belonging to this molecule: `COC(=O)CCC1=CCN(NC(=O)c2ccccc2)CC1`
-- reply 0.949

-- ask Dear colleague, please send me the reported logP for `O=C(NN1CCC=C(F)C1)c1ccccc1` when you can.
-- reply 1.27

# batch: return logP for each of the 4 molecules below
1. CC1CC=CCN1NC(=O)c1ccccc1 (centres undefined)
2. O=C(O)CCC1=CCCN(NC(=O)c2ccccc2)C1
3. CC(O)C1=CCCN(NC(=O)c2ccccc2)C1 (centres undefined)
4. COCCCC1=CCCN(NC(=O)c2ccccc2)C1

-- reply
0.699
1.18
0.447
0.908
